- measurement target: CDK1/cyclin B
- test name: CDK1/cyclin B kinase assay
- measurement setup: 15 μM ATP, 30° C., histone H1 substrate
Each record here notes measured pIC50.
Quick note: pIC50 values are minus log10 of concentrations in mol/L.

Which pIC50 value belongs to CC[C@@H](CO)Nc1nc(NCc2ccc(-c3ccccn3)cc2)n2ncc(C(C)C)c2n1 ?
7.64

Given the compound CC(C)c1cnn2c(NCc3ccc(-c4ccccn4)cc3)nc(NC(CO)CO)nc12 [Compound 17] , what is its reported pIC50?
7.15

Can you look up the measured pIC50 of CC[C@H](CO)Nc1nc(NCc2ccccc2)n2ncc(C(C)C)c2n1 [N-&-N1, reference compound] for me?
7.05

# query: pIC50 of entry CC[C@H](CO)Nc1nc(NCc2ccc(-c3ccccn3)cc2)n2ncc(C(C)C)c2n1 [Compound 3]
7.80

Give its pIC50 value. Item: CC(C)c1cnn2c(NCc3ccc(-c4ccccn4)cc3)nc(N[C@H](CO)[C@@H](C)O)nc12 [Compound 13]
7.51

----------
- measurement target: CDK9/cyclin T (Homo sapiens, UniProt P50750)
- Sequence (P50750 whole entry): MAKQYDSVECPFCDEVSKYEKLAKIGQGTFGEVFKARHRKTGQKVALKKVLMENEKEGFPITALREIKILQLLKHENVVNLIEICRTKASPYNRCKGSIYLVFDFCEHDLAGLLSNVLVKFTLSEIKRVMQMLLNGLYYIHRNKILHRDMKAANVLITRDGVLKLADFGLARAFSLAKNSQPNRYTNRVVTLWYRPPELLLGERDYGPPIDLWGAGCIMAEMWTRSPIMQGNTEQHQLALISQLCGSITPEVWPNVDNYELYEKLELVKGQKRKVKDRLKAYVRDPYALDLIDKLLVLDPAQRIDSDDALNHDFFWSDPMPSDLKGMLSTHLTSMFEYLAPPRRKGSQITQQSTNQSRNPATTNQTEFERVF
- Sequence (O60563 whole entry partner): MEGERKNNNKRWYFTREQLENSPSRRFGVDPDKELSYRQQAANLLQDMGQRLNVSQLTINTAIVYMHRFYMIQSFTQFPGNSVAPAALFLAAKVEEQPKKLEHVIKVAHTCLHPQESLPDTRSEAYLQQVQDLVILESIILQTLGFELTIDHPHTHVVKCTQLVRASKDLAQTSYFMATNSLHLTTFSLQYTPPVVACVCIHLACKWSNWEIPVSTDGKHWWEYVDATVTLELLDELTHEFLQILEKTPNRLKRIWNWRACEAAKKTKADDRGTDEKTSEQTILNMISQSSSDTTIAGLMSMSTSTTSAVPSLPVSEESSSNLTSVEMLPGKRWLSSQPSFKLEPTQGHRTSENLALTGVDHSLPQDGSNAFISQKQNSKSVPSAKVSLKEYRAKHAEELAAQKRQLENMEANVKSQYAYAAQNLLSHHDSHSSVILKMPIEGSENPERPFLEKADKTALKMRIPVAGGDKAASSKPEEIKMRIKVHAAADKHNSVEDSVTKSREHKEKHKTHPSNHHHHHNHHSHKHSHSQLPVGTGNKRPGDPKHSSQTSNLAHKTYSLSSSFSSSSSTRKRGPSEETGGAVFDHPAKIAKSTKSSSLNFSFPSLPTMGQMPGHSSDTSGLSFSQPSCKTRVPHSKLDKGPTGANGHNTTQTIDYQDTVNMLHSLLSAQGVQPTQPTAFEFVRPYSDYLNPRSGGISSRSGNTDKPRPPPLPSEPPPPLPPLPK
- test name: CDK9/cyclin T kinase assay
- measurement setup: 15 μM ATP, 30° C., pRB fragment substrate
Label rule met when IC50 is strictly below 60 nM; at or above that, label rule not met.

Some entries whose results are on file:
Given the entry CC(C)c1cnn2c(NCc3ccc(-c4ccccn4)cc3)nc(NC(CO)CO)nc12 [Compound 17] , would its reported IC50 be below 60 nM?
rule not met

Is IC50 strictly under 60 nM for the entry CC[C@H](CO)Nc1nc(NCc2ccc(-c3ccccn3)cc2)n2ncc(C(C)C)c2n1 [Compound 3] ?
rule met

Determine if CC[C@@H](CO)Nc1nc(NCc2ccc(-c3ccccn3)cc2)n2ncc(C(C)C)c2n1 shows IC50 strictly lower than 60 nM.
rule met

# check: IC50 < 60 nM for CC(C)c1cnn2c(NCc3ccc(-c4ccccn4)cc3)nc(N[C@@H](CO)[C@H](C)O)nc12 (stereo in doubt) [Compound 14]
rule met

Is IC50 of CC(C)c1cnn2c(NCc3ccc(-c4ccccn4)cc3)nc(NC[C@H](O)CO)nc12 strictly below 60 nM?
rule met

Please state whether IC50 is below 60 nM for CC(C)c1cnn2c(NCc3ccc(-c4ccsc4)cc3)nc(N[C@H](CO)[C@@H](C)O)nc12 (stereo in doubt)
rule not met

Record CC[C@H](CO)Nc1nc(NCc2ccc(-c3ccccn3)cc2)n2ncc(C(C)C)c2n1 [Compound 2] : is its IC50 strictly below 60 nM?
rule not met

Lab log: compare recorded IC50 with 60 nM; is it strictly lower for CC[C@H](CO)Nc1nc(NCc2ccc(-c3ccccc3)cc2)n2ncc(C(C)C)c2n1 ?
rule not met

// switching to the query compound
# TODO verify IC50 < 60 nM strictly for this compound: CC(C)c1cnn2c(NCc3ccc(-c4ccccn4)cc3)nc(N[C@H](CO)[C@@H](C)O)nc12 [Compound 13]
rule met

----------
- measurement target: GSK-3α/β
- test name: GSK-3α/β kinase assay
- measurement setup: 15 μM ATP, 30° C., buffer A, GS-1 substrate
# pIC50 per entry
pIC50 (log units): -log10 of the concentration in mol/L.

Tell me reported pIC50 for CC[C@H](CO)Nc1nc(NCc2ccc(-c3ccccn3)cc2)n2ncc(C(C)C)c2n1 [Compound 3] , tested with GSK-3α/β.
5.51

Could you share what pIC50 was measured for CC(C)c1cnn2c(NCc3ccc(-c4ccccn4)cc3)nc(N[C@H](CO)C(C)C)nc12 , tested on GSK-3α/β?
5.15

Others:
Provide the documented pIC50 with GSK-3α/β as the system for CCc1cnn2c(NCc3ccc(-c4ccccn4)cc3)nc(N[C@@H](CC)CO)nc12
5.85
